Where these numbers come from: BigSolDB 2.1

# PROTOCOL_CONDITIONS: in DMSO, 303.2 K
PROPERTY: solubility (mole fraction)
Give bare numbers.

Qu. Supply measured solubility (mole fraction) of CC1=CC(=O)C(C(C)C)=CC1=O in your reply.
Ans. 0.0309

###

# PROTOCOL_CONDITIONS: in ethanol, 318.2 K
PROPERTY: solubility (mole fraction)
Numbers only.

Qu. Supply measured solubility (mole fraction) of CC1=CC(=O)C(C(C)C)=CC1=O in your reply.
Ans. 0.0326

###

# PROTOCOL_CONDITIONS: in methanol, 313.2 K
PROPERTY: solubility (mole fraction)
Numbers only.

Qu. Supply measured solubility (mole fraction) of CC1=CC(=O)C(C(C)C)=CC1=O in your reply.
Ans. 0.0157
